Each item that follows carries a reported log10(CC50 at 24 h).
- experiment-summary: Cytotoxicity against monkey MA104 cells after 24 hrs
- Format: cell-based, Macaca mulatta
- settings: rhesus monkey, read-out: TD50
Reminder: these figures are log10 of reported CC50 at 24 h, in µM before transformation.

Below, each entry is followed by its recorded log10(CC50 at 24 h) result.
compound: CCCCCCCCCCCCCCCCNc1ccc(C(=O)O)cc1
log10(CC50 at 24 h): 1.88

compound: C=C1C(=O)O[C@H](CCCCCCCC)[C@H]1C(=O)O
log10(CC50 at 24 h): 1.45

compound: C/C=C/C/C=C/CCC(=O)[C@H]1O[C@H]1C(N)=O
log10(CC50 at 24 h): 1.75

compound: CCC/C=C/C/C=C/C=C/C=N/NS(=O)(=O)C(C)C
log10(CC50 at 24 h): 1.96

compound: CCC/C=C/C/C=C/C=C/C=N/NS(=O)(=O)CCl
log10(CC50 at 24 h): 1.87

compound: C=C(C)[C@@H]1CC[C@]2(C(=O)O)CC[C@]3(C)[C@H](CC[C@@H]4[C@@]5(C)CC[C@H](O)C(C)(C)[C@@H]5CC[C@]43C)[C@@H]12
log10(CC50 at 24 h): 1.44

compound: CCC/C=C/C/C=C/C=C/C=C/C#N
log10(CC50 at 24 h): 1.90

compound: CCCCCCCCCCC(C)(C)C(=O)Nc1c(OC)cc(OC)cc1OC
log10(CC50 at 24 h): 0.93

compound: O=C(Nc1ccccc1)Nc1ccc(-c2ccc(C(=O)[C@@H]3CCC[C@H]3C(=O)O)cc2)cc1
log10(CC50 at 24 h): 1.93

compound: CCC/C=C/C/C=C/C=C/C=N/N1CCCS1(=O)=O
log10(CC50 at 24 h): 1.94

Requested field: log10(CC50 at 24 h). Item: Cc1c(C)c2c(c(C)c1O)CCC(C)(COc1ccc(CC3SC(=O)NC3=O)cc1)O2 (centres undefined)
1.27

State the recorded log10(CC50 at 24 h) for this entry: `CCC/C=C/C/C=C/C=C/C=N/NS(=O)(=O)CCCCl`
1.94

So what's the measured log10(CC50 at 24 h) for this one? `CCC/C=C/C/C=C/C=C/CNc1ccc(C(=O)O)cc1`
1.45

Recorded log10(CC50 at 24 h) of `CCC/C=C/C/C=C/C=C/C=N/NN=O` , please.
1.70

====

selectivity ratio values, listed per item
- experiment-summary: Therapeutic index, ratio of TD50 for monkey MA104 cells to ED50 for Rotavirus SA11
- Type: cell-based
- settings: read-out: Ratio TD50/ED50

smiles-representation: CCC/C=C/C/C=C/C=C/C=N/NN=O
selectivity ratio: 248

Lab note: next compound to report on.
What does the record list as selectivity ratio for `CCC/C=C/C/C=C/C=C/CNc1ccc(C(=O)O)cc1` ?
285
